Every entry's value here was drawn from paper PMC9603864.

# experimental target: 20S proteasome β5 subunit (chymotrypsin-like activity) (Homo sapiens, UniProt P28074)
# Construct: gene PSMB5; whole human 20S proteasome (Biomol); with other subunits of the 20S proteasome
# Sequence (P28074 60-263): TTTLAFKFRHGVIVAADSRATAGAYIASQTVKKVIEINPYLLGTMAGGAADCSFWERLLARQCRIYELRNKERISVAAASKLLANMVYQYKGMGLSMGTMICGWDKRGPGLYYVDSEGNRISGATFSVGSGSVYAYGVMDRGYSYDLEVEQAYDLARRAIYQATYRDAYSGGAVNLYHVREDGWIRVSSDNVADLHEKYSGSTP
# test method notes: fluorometric ChT-L assay with Suc-LLVY-AMC, continuous; IC50 […], Ki by Cheng-Prusoff
# Format: biochemical
quantity name: Ki (nM)

[
  {
    "molecule": "FC(F)(F)C1(Cl)CN1c1ccc(N=Nc2ccccc2)cc1 (stereo not shown)",
    "recorded result": 1600
  }
]
